Item-by-item account of IC50
test system: human melanoma cells A375 (with a mutated B-RAF); experiment: In vitro cell proliferation assay, A375; type: cell-based; settings: A-375, 72 hours treatment, cell number by ATP monitoring system
The reply should consist of the numeric value with the unit placed after it.

Please review the following examples before continuing.
- Compound: "Cn1c(-c2nc(N)ncc2C#Cc2cccc(O)c2)cc2c1CCNC2=O [compound 2]"
  IC50: "6.09 µM"
- Compound: "Nc1ncc(C#Cc2cccc(O)c2)c(-c2cc3c(n2CCF)CCNC3=O)n1 [compound 3]"
  IC50: "6.46 µM"

We now examine a further compound.
*Q* Recorded IC50 of Cn1c2c(c(-c3cccc(NC(=O)Nc4ccc(C(F)(F)F)cc4)c3)c1-c1ccnc(N)n1)C(=O)NCC2 [compound 1] , please.
*A* 8.22 µM

* * *

system: human melanoma cells A375 (with a mutated B-RAF); assay: In vitro cell proliferation assay, A375; assay type: cell-based; settings: A-375, 72 hours treatment, cell number by ATP monitoring system
Recorded IC50 determines the group label, using bottom bin (below 400 nM), middle bin (400 nM to below 2000 nM), top bin (2000 nM or more)

- Compound: "Cn1c(-c2ccnc(NC(=O)c3cccs3)n2)cc2c1CCNC2=O"
  Category label: "middle bin"
- Compound: "Cn1c(-c2ccnc(/C=C/c3cccc(Cl)c3)n2)cc2c1CCNC2=O"
  Category label: "bottom bin"
- Compound: "Cc1csc(C(=O)Nc2nccc(-c3cc4c(n3C)CCNC4=O)n2)c1"
  Category label: "middle bin"

*Q* Bin? Cn1c(-c2ccnc(NC(=O)c3cccc(Cl)c3)n2)cc2c1CCNC2=O
*A* middle bin

*Q* Another compound: Cn1c(-c2ccnc(NC(=O)c3ccsc3)n2)cc2c1CCNC2=O
*A* top bin

* * *

System: p-MAPK (T202/Y204) in A375 human melanoma cells, having a mutated B-RAF
Test: p-MAPK (T202/Y204) ArrayScan assay
Assay type: cell-based
Conditions: A-375, A375 cells treated 1.5 or 2 hours, cytoplasmatic p-MAPK fluorescence intensity, read-out: Array Scan A375 IC50
Procedure: A375 human melanoma cells, having a mutated B-RAF, are seeded in 384-well poly-lysine coated plates (Matrix) at a density of 1000 cells/well with appropriate medium supplemented with 10% FCS and incubated for 16-24 hours. Cells are treated for 1.5 or 2 hours with increasing doses of compounds (starting dose 10 μM, dilution factor 2.5). […] The parameter “MEAN_RingAvgIntenCh2”, which measures the mean cytoplasmatic fluorescence intensity associated to p-MAPK staining, is reported as the final result.
Where a name gives a salt, the structure may show the parent alone.
Endpoint label: IC50 (µM)
The figure you give is taken to be in µM; do not add the unit.

Record excerpt, results attached:
- Compound: "Cn1c(-c2ccnc(NC(=O)c3cccc(Cl)c3)n2)cc2c1CCNC2=O"
  IC50 [µM]: 1.6
- Compound: "Cn1c(-c2ccnc(NC(=O)c3cc(Br)cs3)n2)cc2c1CCNC2=O"
  IC50 [µM]: 0.46
- Compound: "Cn1c(-c2ccnc(NCc3cc(Br)cs3)n2)cc2c1CCNC2=O [compound 7, hydrochloride]"
  IC50 [µM]: 2.14
- Compound: "Cn1c(-c2ccnc(/C=C/c3cccc(Cl)c3)n2)cc2c1CCNC2=O"
  IC50 [µM]: 0.4
- Compound: "Cn1c(-c2ccnc(NC(=O)c3ccsc3)n2)cc2c1CCNC2=O"
  IC50 [µM]: 2.38

// below: IC50 requested for another compound
*Q* Which measured IC50 value corresponds to Cn1c(-c2ccnc(NCc3cccc(Cl)c3)n2)cc2c1CCNC2=O [compound 6, hydrochloride] ?
*A* 2.11
